Could you please report measured Raw reads for the items listed next?
target.or.system: IRAK4 (Homo sapiens, UniProt Q9NWZ3)
Sequence (Q9NWZ3 1-460): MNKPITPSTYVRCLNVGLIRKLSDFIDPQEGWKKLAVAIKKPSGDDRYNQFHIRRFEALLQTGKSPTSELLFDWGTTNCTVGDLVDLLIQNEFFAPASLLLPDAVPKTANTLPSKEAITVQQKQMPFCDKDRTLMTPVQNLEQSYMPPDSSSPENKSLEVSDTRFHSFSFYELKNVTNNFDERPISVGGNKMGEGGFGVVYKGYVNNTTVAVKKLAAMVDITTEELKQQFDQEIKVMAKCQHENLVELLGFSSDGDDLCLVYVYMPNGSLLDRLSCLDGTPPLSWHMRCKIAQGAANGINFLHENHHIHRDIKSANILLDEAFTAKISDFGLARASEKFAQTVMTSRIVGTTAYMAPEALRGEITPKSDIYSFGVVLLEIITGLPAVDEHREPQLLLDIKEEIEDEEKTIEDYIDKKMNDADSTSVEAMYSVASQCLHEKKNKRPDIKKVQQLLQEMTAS
test.summary: mRNA display affinity selection against IRAK4, NGS abundance
Type: binding
Set-up: acids 1-460; NP_057207.2) was purchased from Carna Biosciences; purchased Carna Biosciences (Kobe, Japan)
test.context: IRAK4 selection pulldown (-); Top100 selection hits, NGS
// no unit string in output, number only

Sample "TLCWKRRTWK" — what was its Raw reads?
2408

Quick one: Raw reads for "TMLWKRRIHA" ?
181

Requested field: Raw reads. Item: "SLYWKSRIWR"
96

Could you share which Raw reads value was measured for "SMLWGRRIYR" ?
48

Param item = "TLLWKRRNWA" ; retrieve measured Raw reads.
57

Endpoint output: Raw reads of "TQRWKHRLYK" . Value?
43

Sample "TLCWRRRNYK" — what was its Raw reads?
1518

Find the recorded Raw reads belonging to "SMKRQFITWRWT" and report it.
20

Requested read-out: Raw reads. Entry: "SIMWKRRVFK"
11

I am curious: what Raw reads value has been reported for "SMQRKTIHWKWT" ?
145

Consider the sequence shown here: "SMERQFITWHWT" What is its recorded Raw reads?
17

GET /values?readout=Raw reads&item= "SVLWRKRIYR"
191

Given the sequence "SVRWKRRDYR" , what is its reported Raw reads?
903
